- Test system: Acinetobacter baumannii ATCC 17978
- assayInfo: Antimicrobial susceptibility testing: 90% growth inhibitory concentration (IC90) determination
- Assay type: cell-based
- particulars: Acinetobacter baumannii, ATCC17978, 16 h, 90% growth inhibitory concentration; Acinetobacter baumannii ATCC17978; Iso-Sensitest broth, OD 600 nm over 16h; read-out: ATCC17978 IC90
Structures can show the parent of a compound that is named as a salt.
Parameter: IC90. Scope: all listed entries.
Please state the figure in nM; there is no need to write the unit.

compound: CCc1cc(Nc2nccn3c(-c4ccc(OC)c(F)c4F)cnc23)ccc1C(=O)NCCN1CCC[C@H](N)C1=O
IC90, nM: 1100
//
compound: COc1ccc(-c2cnc3c(Nc4cc(C)c(C(=O)NCCCN)c(F)c4)nccn23)c(F)c1F [Example 427, formate]
IC90, nM: 690

Assign IC90 to the following record: CCc1cc(Nc2nccn3c(-c4ccc(OC)c(F)c4F)cnc23)ccc1C(=O)NCC1CCN(CC(=O)NCC2CCNC2)CC1 (stereo not shown)
77

Query IC90 for COc1ccc(-c2cnc3c(Nc4ccc(C(=O)N[C@@H](C)CNC(=N)C(C)C)c(C)c4)nccn23)c(F)c1F
300
